Tested on: HeLa cells
Test: cells
Format: cell-based
Details: read-out: Hela CellCycMod PI Cell Number summarized IC50
pIC50: −log10 of the molar value.
Quantity Kind: pIC50

In: Entry under review: Oc1c(I)cc(Cl)c2cccnc12 [NCGC00016391-13] . Reported pIC50?
Out: < 5.00

---

System: DLD-1
Assay: cells
Type: cell-based
Details: Homo sapiens, DLD-1, basal; DLD-1; read-out: Basal_Viability ATP DLD-1
Hi! Just check whether IC50 is below 70 nM. Below gives True, equal or above gives False.

See these solved cases before continuing.
Compound	Classification
CN(C)/N=N/c1[nH]cnc1C(N)=O [dacarbazine]	False
O=c1[nH]c(=O)n([C@H]2C[C@H](O)[C@@H](CO)O2)cc1I [idoxuridine]	False
COc1ccc2c(c1)C(=O)N(CCc1ccc(S(=O)(=O)NC(=O)NC3CCCCC3)cc1)C(=O)C2(C)C [gliquidone, reference compound]	False

In: Consider the compound O=C1c2c(O)cccc2Cc2cccc(O)c21 [Anthralin] . Is its IC50 strictly less than 70 nM?
Out: True

---

Tested on: HCT116
Test: cells
Type: cell-based
Conditions: Homo sapiens, HCT-116, 72 h, read-out: HCT-116 viab. IC50, Table 2; basal; 72 h, Cell TiterGlo, non-adherent; 20 coded
Consider the following molecules; for each one, report its IC50.

These solved cases illustrate the format of a correct answer.
Molecule	IC50
CCN(CC)CCNC(=O)c1c(C)[nH]c(/C=C2\C(=O)Nc3ccc(F)cc32)c1C [sunitinib, reference compound]	2.3 µM
COc1ccc2c(c1)C(=O)N(CCc1ccc(S(=O)(=O)NC(=O)NC3CCCCC3)cc1)C(=O)C2(C)C [gliquidone, reference compound]	10.1 µM
Cc1ccc(Nc2nccc(N(C)c3ccc4c(C)n(C)nc4c3)n2)cc1S(N)(=O)=O [pazopanib, reference compound]	> 20 µM

Now, please, on to the next molecule.
In: Entry under review: CCC1=C(C)CN(C(=O)NCCc2ccc(S(=O)(=O)NC(=O)N[C@H]3CC[C@H](C)CC3)cc2)C1=O [glimepiride, reference compound] . Reported IC50?
Out: > 20 µM

---

System: NCI-H716 cells
Experiment: cells
Assay type: cell-based, Human
Details: assay number 12
Consider the following compounds; for each one, report its hNCI-H716 GLP1 Secretion IC50/EC50.

Compound	Measured Target	Value
CC(C)CCCC(C)NCCC(C)C (stereo not shown)	NCI-H716 cells	> 40 µM
CN(C)[C@@H]1C(=O)C(C(=O)NCN2CCCC2)=C(O)[C@@]2(O)C(=O)C3=C(O)c4c(O)cccc4[C@@](C)(O)[C@H]3C[C@@H]12	NCI-H716 cells	> 40 µM
Cc1nnc2n1-c1sc(CCc3ccc(CC(C)C)cc3)cc1C(c1ccccc1Cl)=NC2C (stereo not shown)	NCI-H716 cells	24.6779 µM

Now, please, on to the next compound.
In: Find the measured hNCI-H716 GLP1 Secretion IC50/EC50: item CC(C)(Oc1ccc(C2CC2(Cl)Cl)cc1)C(=O)O (stereo not shown) , target or system NCI-H716 cells.
Out: > 40 µM

---

Test system: Colo320
Assay: cells
Format: cell-based
Details: Homo sapiens, COLO 320; Table 2; 72 h, Cell TiterGlo, non-adherent; 20 coded; read-out: Colo320 viab. IC50
Quantity Kind: pIC50
One number for each entry, as −log10 of the molar value.

In: Entry under review: CC(C)n1c(/C=C/C(O)CC(O)CC(=O)O)c(-c2ccc(F)cc2)c2ccccc21 (stereo not shown) [fluvastatin, reference compound] . Reported pIC50?
Out: 4.89

---

Tested on: SW480
Assay: cells
Assay type: cell-based
Settings: Homo sapiens, SW480, read-out: Basal_Viability ATP SW480
pIC50: −log10 of the molar value.
Decision: pIC50 compared against 6; not below it gives class 1, below it gives class 0.

Compound	Measured Target	Classification
CC[C@@H]([C@H](C)O)n1ncn(-c2ccc(N3CCN(c4ccc(OC[C@@H]5CO[C@@](Cn6cncn6)(c6ccc(F)cc6F)C5)cc4)CC3)cc2)c1=O	SW480	class 0
COc1cc(NCc2ccc3nc(N)nc(N)c3c2C)cc(OC)c1OC [trimetrexate, reference compound]	SW480	class 1
COc1c(C)c2c(c(O)c1C/C=C(\C)CCC(=O)O)C(=O)OC2 [Mycophenolate]	SW480	class 0
Cc1nc(N)nc(N)c1-c1ccc(Cl)c(Cl)c1 [metoprine, reference compound]	SW480	class 1
CN(C)CCC=C1c2ccccc2CCc2ccccc21 [amitriptyline, reference compound]	SW480	class 0

Turning to the following compound.
In: Is pIC50 at least 6? Consider `CC[C@]1(O)C[C@H]2CN(CCc3c([nH]c4ccccc34)[C@@](C(=O)OC)(c3cc4c(cc3OC)N(C=O)[C@H]3[C@@](O)(C(=O)OC)[C@H](OC(C)=O)[C@]5(CC)C=CCN6CC[C@]43[C@@H]65)C2)C1`
Out: class 0

---

Consider the following molecules; for each one, report its WntCondMedia_Alk Phos C2C12 IC50/EC50.
System: alkaline phosphatase (ALP) activity in C2C12 cells
Assay type: cell-based
Details: assay number 6; concentration response
One number for each entry, in µM.

These solved cases illustrate the format of a correct answer.
Molecule	Quantity Kind	Value
COc1cccc2c1C(=O)c1c(O)c3c(c(O)c1C2=O)C[C@@](O)(C(=O)CO)C[C@@H]3O[C@H]1C[C@H](N)[C@H](O[C@@H]2CCCCO2)[C@H](C)O1 [NCGC00344543-01]	WntCondMedia_Alk Phos C2C12 IC50/EC50	3.9488
CC[C@@]1(O)C(=O)OCc2c1cc1n(c2=O)Cc2c-1nc1ccccc1c2/C=N/OC(C)(C)C [NCGC00253588-01]	WntCondMedia_Alk Phos C2C12 IC50/EC50	0.0032
CC(=O)[C@]1(O)Cc2c(O)c3c(c(O)c2[C@@H](O[C@H]2C[C@H](N)[C@H](O)[C@H](C)O2)C1)C(=O)c1ccccc1C3=O [NCGC00093976-08]	WntCondMedia_Alk Phos C2C12 IC50/EC50	0.5039

# return WntCondMedia_Alk Phos C2C12 IC50/EC50 for each item in the list
1. O=C1c2c(O)ccc(O)c2C(=O)c2c(NCCNCCO)ccc(NCCNCCO)c21 [NCGC00015693-09]
2. CCCOc1ccc2nc(NC(=O)OC)[nH]c2c1 [NCGC00018238-09]

Out:
1.509
0.0881

---

Consider the following compounds; for each one, report its IC50.
System: SW480
Experiment: cells
Type: cell-based
Conditions: Homo sapiens, SW480, read-out: Basal_Viability ATP SW480

These solved cases illustrate the format of a correct answer.
Compound	IC50
O=C(O)c1ccc(-n2nc(-c3ccccc3O)nc2-c2ccccc2O)cc1	77.6 nM
COC(=O)Nc1nc2ccc(C(=O)c3ccccc3)cc2[nH]1	> 20000 nM
O=c1[nH]c(=O)n([C@H]2C[C@H](O)[C@@H](CO)O2)cc1C(F)(F)F	> 20000 nM
O=c1[nH]c(=O)n([C@H]2C[C@H](O)[C@@H](CO)O2)cc1F	> 20000 nM

Now, please, on to the next compound.
In: Entry under review: CC(C)C[C@H](NC(=O)[C@H](Cc1ccccc1)NC(=O)c1cnccn1)B(O)O [bortezomib, reference compound] . Reported IC50?
Out: 5.13 nM

---

Test system: HT-29
Assay: cells
Type: cell-based
Details: assay number 28; basal
Quantity Kind: Basal_Viability ATP HT-29 IC50/EC50

Molecule	Basal_Viability ATP HT-29 IC50/EC50
O=C(NC1CCN(CCc2c[nH]c3ccccc23)CC1)c1ccccc1 [NCGC00165810-02]	> 20 µM
CCN(CCO)CCCC(C)Nc1ccnc2cc(Cl)ccc12.O=S(=O)(O)O (stereo not drawn) [NCGC00159483-04]	> 20 µM
CCC(C(=O)OCCOCCN(CC)CC)c1ccccc1.O=C(O)CC(O)(CC(=O)O)C(=O)O (stereo not drawn) [NCGC00160645-02]	> 20 µM
OC1(c2ccc(Cl)c(C(F)(F)F)c2)CCN(CCCC(c2ccc(F)cc2)c2ccc(F)cc2)CC1 [NCGC00165865-02]	0.9459 µM
COCc1c(C(C)C)nc(C(C)C)c(/C=C/[C@@H](O)C[C@@H](O)CC(=O)[O-])c1-c1ccc(F)cc1.[Na+] [NCGC00164625-04]	1.212 µM
CCCCCCCCCCCCCCCCOP(=O)([O-])OCC[N+](C)(C)C [NCGC00095169-05]	1.955 µM
COc1ccc2c(c1)c1c3n2CCN(C)C3=NCC1 [NCGC00072886-03]	> 20 µM
Cc1cccc(C)c1NC(=O)CC12CCCN1CCC2 [NCGC00167454-02]	> 20 µM
CC(C)Cn1cnc2c1c(=O)n(C)c(=O)n2C [NCGC00168348-03]	> 20 µM
Cc1c(O)cc2c(c1C)O[C@](C)(CCC[C@H](C)CCC[C@H](C)CCCC(C)C)CC2 [NCGC00185764-03]	> 20 µM

# return Basal_Viability ATP HT-29 IC50/EC50 for each item in the list
1. CCOC(=O)c1ccccc1C(=O)OCC [NCGC00090974-06]
2. O=[N+]([O-])c1ccc(Oc2ccc(N=C=S)cc2)cc1 [NCGC00182049-02]
3. CCCCCCCCCCCCCCCCC(C(=O)O)C(O)(CC(=O)O)C(=O)O (stereo not drawn) [NCGC00167547-02]
4. CCCCCCCC(=O)OCC(COC(=O)CCCCCCC)OC(=O)CCCCCCC [NCGC00091285-03]
5. CC(CC=O)CCCC(C)(C)O (stereo not drawn) [NCGC00181031-03]
6. CN1CCC(=C2c3ccccc3C=Cc3ccccc32)CC1 [NCGC00015252-12]
7. Cc1ccc([N+](=O)[O-])[c]2c1[O][Hg]2 [NCGC00249897-01]

Out:
1. > 20 µM
2. 1.0654 µM
3. 4.0996 µM
4. > 20 µM
5. > 20 µM
6. > 20 µM
7. 1.4429 µM

In: Entry under review: CCN(CC)CCOc1ccc(C(O)(Cc2ccc(Cl)cc2)c2ccc(C)cc2)cc1 (stereo not drawn) [NCGC00165907-03] . Reported Basal_Viability ATP HT-29 IC50/EC50?
Out: 3.1665 µM

FYI, the data here is from paper PMC4503722.
